# ASSAY_PROTOCOL: protein stability index of a GFP-peptide fusion (GPS, HEK-293T) (PSI 1-6); higher = more stable;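 note: 24-mer peptide tiles fused after GFP, lentivirally expressed, FACS-sorted into six equal bins by GFP/DsRed ratio, decoded by Illumina sequencing, PSI is the read-weighted mean bin number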
# MEASUREMENT_CONTEXT: treatment: MLN4924 1 uM, 8 h; c terminus: a fixed tail appended
READOUT_KIND: protein stability index
Form field (numeric): enter value without unit.

In the examples that follow, each entry is paired with its recorded protein stability index.
Which protein stability index reading was recorded for the sequence QHKTCMLNATSKFMEFYQDVKDWW [EDNRA] ?
2.89

Which protein stability index reading was recorded for the sequence HTGLKPYECGVCAKKFMWRDSFMR [ZBTB22] ?
2.44

Next:
Which protein stability index reading was recorded for the sequence HCLHSAGHSQPDGAYSSASSFSRP [DLX1] ?
3.61

Which protein stability index reading was recorded for the sequence SMSTRRLGVAVAVLGGFLYAVGGS [KLHL20] ?
2.67

Which protein stability index reading was recorded for the sequence GFTDRREARKYASNLLKAGFIRHT [DVL3] ?
2.71

Which protein stability index reading was recorded for the sequence ALSTMGTLICRKLGGVKKSATLRS [TPD52L3] ?
2.67

Which protein stability index reading was recorded for the sequence CLRDDVVFFIYLYQRWIYRVDPTR [CLPTM1] ?
2.81

Which protein stability index reading was recorded for the sequence VSCLGLGTWVTFGGQITDEMAEQL [KCNAB2] ?
2.51

Which protein stability index reading was recorded for the sequence YESGYAFLPDLLIFQMVIICLMCV [SMG5] ?
3.16

Data credit: the supplement of paper PMC10567573
